B1: POU domain, class 3, transcription factor 1, residues 247 to 324; numbered along this chain, Q03052 (parent)
chain: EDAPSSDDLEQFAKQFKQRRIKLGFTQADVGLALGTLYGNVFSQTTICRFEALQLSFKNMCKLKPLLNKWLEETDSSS

variants of: B1; experiment: abundance fitness (aPCA) (normalised: wild type 0, dead -1); higher = more abundant; growth selection in yeast, the domain comes from the species named; settings: Homo sapiens
Label 1 when abundance fitness is at or above -0.2; anything below gets 0.

Check out these entries, answers already filled in.
EDAPSSDDLEQFAKQFKQRRIKLGFTQADVGLALGTLYGNVFSQTTICRFEALQLSFKNMQKLKPLLNKWLEETDSSS [C61Q]
1
EDAPSSDDLEQFAKQFKQRRIKLGFTQADVGLALGLLYGNVFSQTTICRFEALQLSFKNMCKLKPLLNKWLEETDSSS [T36L]
1
EDAPSSDDLEQFAKQFKQRRIKLGFTQADVGLALGTLYGNVFSQTTICRFEALQLSFKVMCKLKPLLNKWLEETDSSS [N59V]
1
EDAPSSDDLEQFAKQFKQRRIKLGFTQADVGLALGTLYGNVFSQTTICRFEALQLSFKNMCKLKPLLWKWLEETDSSS [N68W]
1

[in] Determine whether this variant has abundance fitness no lower than -0.2: EDAPSSDDLEQFAKQFKQRRIKLGFTQADVGLALGTLYGNSFSQTTICRFEALQLSFKNMCKLKPLLNKWLEETDSSS [V41S]
[out] 1

[in] Determine whether this variant has abundance fitness no lower than -0.2: EDAPSSDDLEQFAKQFKQRRIKLGFTQADVGLALGTLYGNVFSQTTICRFEALQLSFKNMCKLKPLLNKWLEETDSPS [S77P]
[out] 1

[in] Determine whether this variant has abundance fitness no lower than -0.2: EDAPSSDDLEQFAKQFKQRRIKLGFTQAHVGLALGTLYGNVFSQTTICRFEALQLSFKNMCKLKPLLNKWLEETDSSS [D29H]
[out] 0

[in] Determine whether this variant has abundance fitness no lower than -0.2: EDAPSSDDLEQFAKQFKQRRIKLGFTQADVGLALGTLYGNVFSQTTICRFECLQLSFKNMCKLKPLLNKWLEETDSSS [A52C]
[out] 0

[in] Determine whether this variant has abundance fitness no lower than -0.2: EDAPSSDDLEQFAKQFKQRRIKLGFTQADVGLALGTLYGNVFSQTTICRFEALQLQFKNMCKLKPLLNKWLEETDSSS [S56Q]
[out] 0

[in] Determine whether this variant has abundance fitness no lower than -0.2: EDAPSSDDLEQFAKQFKQRRIKLGFTQADVGLALGTLYGNVFSQTTICRFEALQLSFKNMCKLKPLTNKWLEETDSSS [L67T]
[out] 0

[in] Determine whether this variant has abundance fitness no lower than -0.2: EDAPSSDDLEQFAKQFKQRRIKLGFTQADVGLALGTLYGNVFSQTTICRFEALQLSFVNMCKLKPLLNKWLEETDSSS [K58V]
[out] 0

[in] Determine whether this variant has abundance fitness no lower than -0.2: EDAPSSDDLEQFAKQFKQRRIKLGFTQADVGLALGTLYGNVFSQTTICRFEALNLSFKNMCKLKPLLNKWLEETDSSS [Q54N]
[out] 1

[in] Determine whether this variant has abundance fitness no lower than -0.2: EDAPSSDDLEQFAKQFKQRRIKLGFTQADVGLALGTLYGNVFSQTTICRFEALQLSFKNMCKLKPLLNKWLEETDKSS [S76K]
[out] 1

[in] Determine whether this variant has abundance fitness no lower than -0.2: EDAPSSDDLEQFAKQFKQRRIKLGSTQADVGLALGTLYGNVFSQTTICRFEALQLSFKNMCKLKPLLNKWLEETDSSS [F25S]
[out] 0

[in] Determine whether this variant has abundance fitness no lower than -0.2: EDAPSSDDLEQFAKQFKQRRIKLGFTQADVGPALGTLYGNVFSQTTICRFEALQLSFKNMCKLKPLLNKWLEETDSSS [L32P]
[out] 0

[in] Determine whether this variant has abundance fitness no lower than -0.2: EDAPSSDDLEQFAKQFKQRRIKLGFTQADVGLALGTLYGNVFSQTTICRFEALQLSFKLMCKLKPLLNKWLEETDSSS [N59L]
[out] 1

[in] Determine whether this variant has abundance fitness no lower than -0.2: EDAPSSDDLEQFAKQFKQRRIKLGFTQADVGLALGTLYGNVFSQTTICRFEALQLSFKNMCLLKPLLNKWLEETDSSS [K62L]
[out] 1

[in] Determine whether this variant has abundance fitness no lower than -0.2: EDAPSSDDLEQFAKQFKQRRIKLGFTQADVGLALGTLYGNVFSQTTICRFEALQLSFKNMCKLKPLLNKWLEETDSAS [S77A]
[out] 1

[in] Determine whether this variant has abundance fitness no lower than -0.2: EDAPSSDDLEQFAKQFKQRRIKLGFTQADVGLALGTLYGNVFSQTTIPRFEALQLSFKNMCKLKPLLNKWLEETDSSS [C48P]
[out] 1

[in] Determine whether this variant has abundance fitness no lower than -0.2: EDAPSSDDLEQFAKQFKQRRIKLGFTQADVGLALGTLYGNVFSQTTICRFEALQLSFKNMCKLKPLLNNWLEETDSSS [K69N]
[out] 0
